Cited source for all entries: the supplement of paper PMC4466140

molecular target: ScFus1; test: SPOT peptide array binding signal intensity (averaged, normalized) (arbitrary units (background-subtracted, floor 0; scale differs between SH3 domains)); higher = stronger binding of the SH3 domain to the peptide
QUANTITY MEASURED: SPOT peptide array binding signal intensity
One number for each entry.

# example entries with known answers
// returns reported SPOT peptide array binding signal intensity for input FIRKRAPTPPAPSRS
84.5

Recorded SPOT peptide array binding signal intensity for RLSRLLLSLPPESFT , please?
1180

I am curious: what SPOT peptide array binding signal intensity value has been reported for KWVRRPKLMTPLTFS ?
1090

New cases:
Looking for the measured SPOT peptide array binding signal intensity of KKAPPPVVKPKPRNF , can you help?
15
